What follows is a collection of Ki values obtained with DAT (Rattus norvegicus, UniProt P23977).
Sequence (P23977 whole entry): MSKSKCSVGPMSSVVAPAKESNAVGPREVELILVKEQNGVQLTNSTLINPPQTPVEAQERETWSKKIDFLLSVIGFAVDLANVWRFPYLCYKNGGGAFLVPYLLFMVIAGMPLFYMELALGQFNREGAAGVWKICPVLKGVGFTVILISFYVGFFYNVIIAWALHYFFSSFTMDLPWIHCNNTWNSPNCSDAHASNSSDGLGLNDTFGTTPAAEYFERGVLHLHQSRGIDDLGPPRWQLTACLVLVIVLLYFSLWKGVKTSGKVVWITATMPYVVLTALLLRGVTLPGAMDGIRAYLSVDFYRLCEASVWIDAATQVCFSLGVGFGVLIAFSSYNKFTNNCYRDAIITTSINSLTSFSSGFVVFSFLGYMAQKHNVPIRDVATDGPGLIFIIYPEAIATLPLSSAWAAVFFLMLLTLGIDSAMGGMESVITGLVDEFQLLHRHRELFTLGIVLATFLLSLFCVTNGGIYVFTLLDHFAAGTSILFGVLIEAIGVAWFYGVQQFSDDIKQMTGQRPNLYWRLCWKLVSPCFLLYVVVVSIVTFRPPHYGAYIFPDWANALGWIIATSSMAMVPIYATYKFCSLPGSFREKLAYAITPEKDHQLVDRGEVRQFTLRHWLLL

[
  {
    "compound.structure": "NCCN1[C@@H]2CC[C@H]1C[C@@H](NC(c1ccc(F)cc1)c1ccc(F)cc1)C2",
    "measured.target": "DAT (Rattus norvegicus, UniProt P23977)",
    "result.units": "nM",
    "Ki": 12.5
  },
  {
    "compound.structure": "Fc1ccc(C(N[C@H]2C[C@H]3CC[C@@H](C2)N3CCCCc2ccccc2)c2ccc(F)cc2)cc1",
    "measured.target": "DAT (Rattus norvegicus, UniProt P23977)",
    "result.units": "nM",
    "Ki": 11.7
  },
  {
    "compound.structure": "Fc1ccc(C(N[C@H]2C[C@H]3CC[C@@H](C2)N3)c2ccc(F)cc2)cc1",
    "measured.target": "DAT (Rattus norvegicus, UniProt P23977)",
    "result.units": "nM",
    "Ki": 8.45
  },
  {
    "compound.structure": "CN1[C@@H]2CC[C@H]1C[C@@H](NC(c1ccc(F)cc1)c1ccc(F)cc1)C2",
    "measured.target": "DAT (Rattus norvegicus, UniProt P23977)",
    "result.units": "nM",
    "Ki": 11.3
  }
]
